Experiment: Cmax in mouse at 5 mg/kg, po
Type: ADME, organism-based
Parameters: dose 5 mg/kg, route oral
Conditions: in vivo
Collected Cmax values appear next to each entry.
The reply should be a number in ng/mL, with the unit left off.

I am curious: what Cmax value has been reported for "O=C(O)c1ccccc1NC(=O)N1CCC(c2ccccc2C(F)(F)F)CC1" ?
2950

Can you look up the measured Cmax of "O=C(O)c1ccccc1NC(=O)N1CCN(c2ncccc2C(F)(F)F)CC1" for me?
1000

====

Biological target: Retinol-binding protein 4 (Homo sapiens, UniProt P02753)
Assay: Displacement of [3H]-retinol from human recombinant RBP4 by scintillation proximity assay
READOUT NAME: pIC50
Please keep in mind that pIC50 is minus log10 of the molar concentration; only the number is needed.

# example entries with known answers
{"MOLECULE": "FC(F)(F)c1cccc(CN2CCN(c3ncnc4sc5c(c34)CCC5)CC2)c1", "TARGET UNDER TEST": "Retinol-binding protein 4 (Homo sapiens, UniProt P02753)", "pIC50": 6.22}
{"MOLECULE": "O=C(c1cccc(C(F)(F)F)c1)N1CCC(c2ccccc2C(F)(F)F)CC1", "TARGET UNDER TEST": "Retinol-binding protein 4 (Homo sapiens, UniProt P02753)", "pIC50": 6.04}
{"MOLECULE": "O=C(c1cnccc1C(F)(F)F)N1CCC(c2ccccc2C(F)(F)F)CC1", "TARGET UNDER TEST": "Retinol-binding protein 4 (Homo sapiens, UniProt P02753)", "pIC50": 6.89}
{"MOLECULE": "COc1ccc(Cl)cc1NC(=O)N1CCC(c2ccccc2C(F)(F)F)CC1", "TARGET UNDER TEST": "Retinol-binding protein 4 (Homo sapiens, UniProt P02753)", "pIC50": 6.80}
{"MOLECULE": "COc1ccc(Cl)cc1NC(=O)C1CCN(c2ncccc2C(F)(F)F)CC1", "TARGET UNDER TEST": "Retinol-binding protein 4 (Homo sapiens, UniProt P02753)", "pIC50": 5.96}
{"MOLECULE": "Cn1cncc1C(=O)N1CCC(c2ccccc2C(F)(F)F)CC1", "TARGET UNDER TEST": "Retinol-binding protein 4 (Homo sapiens, UniProt P02753)", "pIC50": 6.08}
{"MOLECULE": "O=C(c1cc(C(F)(F)F)[nH]n1)N1CCC(c2ccccc2C(F)(F)F)CC1", "TARGET UNDER TEST": "Retinol-binding protein 4 (Homo sapiens, UniProt P02753)", "pIC50": 6.62}
{"MOLECULE": "O=C(c1cn(Cc2ccccc2)cn1)N1CCN(c2ccccc2Cl)CC1", "TARGET UNDER TEST": "Retinol-binding protein 4 (Homo sapiens, UniProt P02753)", "pIC50": 6.36}

# value lookup — system Retinol-binding protein 4 (Homo sapiens, UniProt P02753), readout pIC50, item "COc1ccc(Cl)cc1NC(=O)N1CCN(c2ncc(C(F)(F)F)cc2C(F)(F)F)CC1"
5.66

Provide the documented pIC50 with Retinol-binding protein 4 (Homo sapiens, UniProt P02753) as the system for "O=C(Cc1ccccc1C(F)(F)F)N1CCN(c2ncnc3sc4c(c23)CCC4)CC1"
6.55

Lookup: pIC50 / Retinol-binding protein 4 (Homo sapiens, UniProt P02753) / "COc1ccc(Cl)cc1NC(=O)N1CCCN(c2ncccc2C(F)(F)F)CC1"
6.32

Checklist item: pIC50 tested on Retinol-binding protein 4 (Homo sapiens, UniProt P02753), entry COc1ccc(Cl)cc1C(=O)N1CCN(c2ncnc3sc4c(c23)CCC4)C(C)C1 (stereo unspecified) , value?
6.08

Kindly state the measured pIC50 obtained for "COc1ccc(Cl)cc1NC(=O)N1CCN(c2ncnc3sc4c(c23)CCC4)CC1" with Retinol-binding protein 4 (Homo sapiens, UniProt P02753).
6.44

Provide value of pIC50 for this record tested with Retinol-binding protein 4 (Homo sapiens, UniProt P02753): "O=C(c1ccco1)N1CCC(c2ccccc2C(F)(F)F)CC1"
6.92

Observed pIC50 on Retinol-binding protein 4 (Homo sapiens, UniProt P02753) for COc1ccc(Cl)cc1NC(=O)N1CCN(c2ncccc2C(F)(F)F)CC1C (stereo unspecified) , please.
6.35

Lab request: please report pIC50 under test system Retinol-binding protein 4 (Homo sapiens, UniProt P02753) for "COc1ccc(Cl)cc1NC(=O)N1CCN(c2ccccc2Cl)CC1"
6.05
